Hey, just so you know, these numbers are from PubChem BioAssay (NCI).

- Tested on: SF-295 CNS
- method summary: NCI tumour cell line growth inhibition, 48 h
Here, each record is paired with measured TGI data.
quantity: TGI

> print(dat)
                                    compound  target.or.test.system  quantity  value.observed
 1       Cc1ccc(C)n1-n1c(Cc2ccccc2)n[nH]c1=O             SF-295 CNS       TGI        > 100 µM
 2  O=C(Nc1cc(Cl)cc(Cl)c1)c1ccc(NC2=C(Cl)C(=O)N(Cc3ccc(Cl)cc3Cl)C2=O)cc1             SF-295 CNS       TGI        > 100 µM
 3  CC1(C)O[C@@H]2[C@@H](COC(=O)c3ccccc3)C[C@@H](C#N)[C@@H]2O1             SF-295 CNS       TGI        > 100 µM
 4             N#C/C(=C/c1ccc[nH]1)P(=O)(O)O             SF-295 CNS       TGI        > 100 µM
 5  N#CC(C(=O)CCC(=O)C(C#N)c1ccccc1)c1ccccc1 (stereo unspecified)             SF-295 CNS       TGI        > 100 µM
 6  O=C1/C(=C/c2ccccc2)CN(C(=O)c2cccnc2)C/C1=C\c1ccccc1             SF-295 CNS       TGI         4.23 µM
 7  N#CC(C(=O)/C(=N/N)C(C#N)c1ccccc1)c1ccccc1 (stereo unspecified)             SF-295 CNS       TGI        > 100 µM
 8  O=C1C(Cl)=C(Nc2cccc(Cl)c2)C(=O)N1Cc1ccccc1Cl             SF-295 CNS       TGI         20.9 µM
 9  O=C(CN1CCN(CCCOc2c(-c3ccccc3)oc3ccccc3c2=O)CC1)Nc1ccc(Cl)cc1C(=O)c1ccccc1Cl             SF-295 CNS       TGI         18.2 µM
10           Nc1nc(N)c(NC(=O)CCCO)c(=O)[nH]1             SF-295 CNS       TGI        > 100 µM
11           Oc1cc(-c2ccccc2)cn2c1nc1ccccc12             SF-295 CNS       TGI       > 46.1 µM
12  CCC/C(=N/N=C(N)N)c1ccc(NC(=O)c2cc3cc(OC)ccc3[nH]2)cc1             SF-295 CNS       TGI         25.8 µM
13         Cc1cc2nc(CCC(=O)O)c(=O)[nH]c2cc1C             SF-295 CNS       TGI        > 100 µM
14  C=C1C(=O)O[C@H]2[C@H]1CC/C(Cn1cc(-c3cc(C(F)(F)F)cc(C(F)(F)F)c3)nn1)=C\CC[C@@]1(C)O[C@@H]21             SF-295 CNS       TGI         2.53 µM
15  Cc1sc2nc(-c3ccc(Cl)c([N+](=O)[O-])c3)c(/C=N/N=C(N)N)n2c1C             SF-295 CNS       TGI          3.4 µM
16       O=C1C(N2CCNCC2)=C(Cl)C(=O)c2ncccc21             SF-295 CNS       TGI         > 10 µM
